Below, each entry is listed with its recorded IC50.
experimental system: human D2R/β-arrestin (Homo sapiens (Human))
Sequence (P14416 whole entry): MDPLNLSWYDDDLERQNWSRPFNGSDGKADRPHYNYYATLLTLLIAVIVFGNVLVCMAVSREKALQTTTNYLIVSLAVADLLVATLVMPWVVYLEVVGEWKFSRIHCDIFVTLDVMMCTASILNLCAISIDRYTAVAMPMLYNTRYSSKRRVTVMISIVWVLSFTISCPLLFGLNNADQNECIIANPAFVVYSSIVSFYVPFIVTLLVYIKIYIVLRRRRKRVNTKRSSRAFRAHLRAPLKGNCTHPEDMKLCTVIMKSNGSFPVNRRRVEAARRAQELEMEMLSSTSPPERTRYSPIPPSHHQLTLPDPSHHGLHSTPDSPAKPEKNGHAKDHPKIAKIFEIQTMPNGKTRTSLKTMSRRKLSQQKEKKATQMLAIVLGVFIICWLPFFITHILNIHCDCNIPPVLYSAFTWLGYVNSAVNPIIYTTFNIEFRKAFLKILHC
measurement notes: cell-based
condition notes: β-arrestin Antagonist, CHO-K1 cell line expressing human D2R/β-arrestin; quinpirole used as agonist

Exercise: Given COc1cccc(C(NC(=O)C2CCN(CCOc3ccccc3)CC2)c2ccccc2F)c1 (stereo not shown) , state its recorded IC50.
Solution: 1 to 10 µM

Exercise: Given O=C(NC(c1cccc(OC(F)(F)F)c1)c1ccccn1)C1CCN(CCOc2ccccc2F)CC1 (single isomer, unassigned) [Compound 93a] , state its recorded IC50.
Solution: 1 to 10 µM

Exercise: Given COc1cccc(C(NC(=O)C2CCN(CCOc3ccccc3)CC2)c2cocn2)c1 (stereo not shown) , state its recorded IC50.
Solution: > 30 µM

Exercise: Given O=C(NC(c1ccc(F)cc1)c1ccc(F)cc1)C1CCN(CCOc2ccccc2Cl)CC1 , state its recorded IC50.
Solution: < 0.1 µM

Exercise: Given CN(CC1CCN(CCOc2ccc(C(F)(F)F)cc2)CC1)C(c1ccc(Cl)cc1)c1ccccn1 (stereo not shown) , state its recorded IC50.
Solution: 1 to 10 µM

Exercise: Given Fc1ccc(C(NCC2CCN(CCOc3ccccc3)CC2)c2ccccn2)cc1 (single isomer, unassigned) [Compound 78a] , state its recorded IC50.
Solution: 1 to 10 µM

Exercise: Given CC1(C(=O)NC(c2ccc(F)cc2)c2ccccn2)CCN(CCOc2ccccc2)CC1 (single isomer, unassigned) [Compound 69a] , state its recorded IC50.
Solution: 1 to 10 µM
